- Tested on: Escherichia coli
- protocol-details: Antibacterial activity against Escherichia coli ATCC 25922 after 18 hrs in presence of KCl by broth dilution method; further: test concentration or dose not given here
- Type: functional
- setup-conditions: ATCC 25922, 18 h
experimental-readout: MIC

substance	experimental-readout	recorded-measurement
H-RWRWWWRWR-NH2	MIC	4 µM
H-RRFRFFFRFRR-NH2	MIC	4 µM
H-WWRRWRRWW-NH2	MIC	8 µM
H-RWWRRWRRWWR-NH2	MIC	16 µM
H-RFFRRFRRFFR-NH2	MIC	8 µM
H-RLLRRLRRLLR-NH2	MIC	4 µM
H-LLRRLRRLL-NH2	MIC	16 µM
H-RIRIIIRIR-NH2	MIC	8 µM
H-FFRRFRRFF-NH2	MIC	8 µM

---

Catalogue of substances with associated MIC95
- Tested on: Escherichia coli
- protocol-details: Antibacterial activity against Escherichia coli ATCC 25922 after 24 hrs
- Assay type: functional
- setup-conditions: ATCC 25922, 24 h
experimental-readout: MIC95 (µM)

substance	reading-unit	recorded-measurement
H-RFFRRFRRFFR-NH2	µM	8
H-RRWRWWWRWRR-NH2	µM	4
H-RLLRRLRRLLR-NH2	µM	4
H-WWRRWRRWW-NH2	µM	8
H-LLRRLRRLL-NH2	µM	16
H-RIIRRIRRIIR-NH2	µM	16
H-RWRWWWRWR-NH2	µM	4
H-RRFRFFFRFRR-NH2	µM	4
H-RRIRIIIRIRR-NH2	µM	4
H-RRLRLLLRLRR-NH2	µM	4
H-FFRRFRRFF-NH2	µM	8
H-RIRIIIRIR-NH2	µM	8
H-IIRRIRRII-NH2	µM	32
H-RWWRRWRRWWR-NH2	µM	16
H-RLRLLLRLR-NH2	µM	4
H-RFRFFFRFR-NH2	µM	4

---

- Test system: Escherichia coli
- protocol-details: Antibacterial activity against Escherichia coli ATCC 25922 after 18 hrs in presence of NaCl by broth dilution method
- Format: functional
- setup-conditions: ATCC 25922, 18 h
experimental-readout: MIC (µM)

substance	recorded-measurement
H-RRIRIIIRIRR-NH2	4
H-FFRRFRRFF-NH2	8
H-LLRRLRRLL-NH2	16
H-RWWRRWRRWWR-NH2	16
H-RLLRRLRRLLR-NH2	4
H-RWRWWWRWR-NH2	4
H-WWRRWRRWW-NH2	8
H-RRLRLLLRLRR-NH2	4
H-RFRFFFRFR-NH2	4
H-RIRIIIRIR-NH2	8
H-RLRLLLRLR-NH2	4
H-RRFRFFFRFRR-NH2	4
H-RRWRWWWRWRR-NH2	4
H-IIRRIRRII-NH2	32
H-RIIRRIRRIIR-NH2	16
H-RFFRRFRRFFR-NH2	8

---

Catalogue of substances with associated MIC95
- System: Salmonella typhimurium
- protocol-details: Antibacterial activity against Salmonella typhimurium ATCC 14028 after 24 hrs
- Assay type: functional, Salmonella enterica subsp. enterica serovar Typhimurium
- setup-conditions: Salmonella enterica, ATCC 14028, 24 h
experimental-readout: MIC95 (µM)

substance	measured-target	reading-unit	recorded-measurement
H-RRLRLLLRLRR-NH2	Salmonella typhimurium	µM	4
H-RIIRRIRRIIR-NH2	Salmonella typhimurium	µM	16
H-IIRRIRRII-NH2	Salmonella typhimurium	µM	64
H-RWRWWWRWR-NH2	Salmonella typhimurium	µM	4
H-RRWRWWWRWRR-NH2	Salmonella typhimurium	µM	4
H-RRIRIIIRIRR-NH2	Salmonella typhimurium	µM	4
H-RLRLLLRLR-NH2	Salmonella typhimurium	µM	4
H-FFRRFRRFF-NH2	Salmonella typhimurium	µM	4
H-RRFRFFFRFRR-NH2	Salmonella typhimurium	µM	4
H-RIRIIIRIR-NH2	Salmonella typhimurium	µM	4
H-RLLRRLRRLLR-NH2	Salmonella typhimurium	µM	8
H-RFRFFFRFR-NH2	Salmonella typhimurium	µM	4
H-RWWRRWRRWWR-NH2	Salmonella typhimurium	µM	8
H-WWRRWRRWW-NH2	Salmonella typhimurium	µM	8
H-LLRRLRRLL-NH2	Salmonella typhimurium	µM	16
H-RFFRRFRRFFR-NH2	Salmonella typhimurium	µM	4

Ref: ChEMBL document CHEMBL4177755
